Reported pIC50 values are given for each entry in this list.
Target: Interstitial collagenase (Homo sapiens)
Sequence (P03956 whole entry): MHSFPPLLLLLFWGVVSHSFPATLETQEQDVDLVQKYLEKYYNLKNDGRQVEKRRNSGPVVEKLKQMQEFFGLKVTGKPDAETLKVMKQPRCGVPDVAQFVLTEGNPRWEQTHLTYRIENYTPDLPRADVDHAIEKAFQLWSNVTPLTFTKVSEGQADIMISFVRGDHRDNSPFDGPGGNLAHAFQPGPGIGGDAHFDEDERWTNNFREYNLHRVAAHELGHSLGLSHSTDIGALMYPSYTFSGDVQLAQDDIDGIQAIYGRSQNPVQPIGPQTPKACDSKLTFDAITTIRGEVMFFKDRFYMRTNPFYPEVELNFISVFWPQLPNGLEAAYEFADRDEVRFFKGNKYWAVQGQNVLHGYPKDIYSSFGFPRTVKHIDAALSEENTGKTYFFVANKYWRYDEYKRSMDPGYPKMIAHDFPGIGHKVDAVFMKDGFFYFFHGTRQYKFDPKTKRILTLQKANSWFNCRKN
Assay: Inhibition of recombinant human MMP1 assessed as substrate cleavage by measuring increase in fluorescence after 16 hrs
pIC50: −log10 of the molar value.
Property Measured: pIC50

[[record]]
mol_smiles = "C[C@@H](C[C@@](C)(CS(=O)(=O)N1CCC(OCc2ccc(Cl)cc2Cl)CC1)N(O)C=O)c1ncc(F)cn1"
measurement = "< 5.00"

[[record]]
mol_smiles = "C[C@@H](C[C@@](C)(CS(=O)(=O)N1CCC(CCc2ccc(C(F)(F)F)cc2C2CC2)CC1)N(O)C=O)c1ncc(F)cn1"
measurement = "< 5.00"

[[record]]
mol_smiles = "Cc1cc(Cl)ccc1CCC1CCN(S(=O)(=O)C[C@](C)(C[C@H](C)c2ncc(F)cn2)N(O)C=O)CC1"
measurement = "< 5.07"

[[record]]
mol_smiles = "Cc1cc(C(F)(F)F)ccc1CCC1CCN(S(=O)(=O)C[C@](C)(C[C@H](C)c2ncc(F)cn2)N(O)C=O)CC1"
measurement = "< 5.00"

[[record]]
mol_smiles = "C[C@@H](C[C@@](C)(CS(=O)(=O)N1CCC(CCc2ccc(C(F)(F)F)cc2Cl)CC1)N(O)C=O)c1ncc(F)cn1"
measurement = "< 4.00"

[[record]]
mol_smiles = "C[C@@H](C[C@@](C)(CS(=O)(=O)N1CCC(CCc2ncc(C(F)(F)F)cc2Cl)CC1)N(O)C=O)c1ncc(F)cn1"
measurement = "< 4.15"

[[record]]
mol_smiles = "C[C@@H](C[C@@](C)(CS(=O)(=O)N1CCN(c2ccc(F)cc2)CC1)N(O)C=O)c1ncc(F)cn1"
measurement = 6.01

[[record]]
mol_smiles = "Cc1cnc(C)c(CCC2CCN(S(=O)(=O)C[C@](C)(C[C@H](C)c3ncc(F)cn3)N(O)C=O)CC2)c1"
measurement = 4.26

[[record]]
mol_smiles = "Cc1cc(C)c(CCC2CCN(S(=O)(=O)C[C@](C)(C[C@H](C)c3ncc(F)cn3)N(O)C=O)CC2)cn1"
measurement = "< 4.00"

[[record]]
mol_smiles = "C[C@@H](C[C@@](C)(CS(=O)(=O)N1CCC(CCc2ccc(F)cc2C(F)(F)F)CC1)N(O)C=O)c1ncc(F)cn1"
measurement = 5.01

[[record]]
mol_smiles = "Cc1cc(C(F)(F)F)cnc1CCC1CCN(S(=O)(=O)C[C@](C)(C[C@H](C)c2ncc(F)cn2)N(O)C=O)CC1"
measurement = "< 4.10"

[[record]]
mol_smiles = "C[C@@H](C[C@@H](CS(=O)(=O)N1CCN(c2ccc(F)cc2)CC1)N(O)C=O)c1ncc(F)cn1"
measurement = "< 5.96"

[[record]]
mol_smiles = "Cc1cc(F)ccc1CCC1CCN(S(=O)(=O)C[C@](C)(C[C@H](C)c2ncc(F)cn2)N(O)C=O)CC1"
measurement = "< 5.09"

[[record]]
mol_smiles = "Cc1cc(CCC2CCN(S(=O)(=O)C[C@](C)(C[C@H](C)c3ncc(F)cn3)N(O)C=O)CC2)c(C)cn1"
measurement = "< 4.00"

[[record]]
mol_smiles = "Cc1cc(CCC2CCN(S(=O)(=O)C[C@](C)(C[C@H](C)c3ncc(F)cn3)N(O)C=O)CC2)n(C)n1"
measurement = "< 5.00"

[[record]]
mol_smiles = "C[C@@H](C[C@@](C)(CS(=O)(=O)N1CCC(CCc2ccc(S(C)(=O)=O)cc2Cl)CC1)N(O)C=O)c1ncc(F)cn1"
measurement = "< 4.15"

[[record]]
mol_smiles = "C[C@@H](C[C@@](C)(CS(=O)(=O)N1CCC(CCc2cc(F)ccc2Cl)CC1)N(O)C=O)c1ncc(F)cn1"
measurement = "< 5.02"

[[record]]
mol_smiles = "C[C@@H](C[C@@H](CS(=O)(=O)N1CCC(OCc2ccc(Cl)cc2Cl)CC1)N(O)C=O)c1ncc(F)cn1"
measurement = 5.01

[[record]]
mol_smiles = "Cc1noc(C)c1CCC1CCN(S(=O)(=O)C[C@](C)(C[C@H](C)c2ncc(F)cn2)N(O)C=O)CC1"
measurement = "< 4.72"

[[record]]
mol_smiles = "Cc1ccc(C)c(CCC2CCN(S(=O)(=O)C[C@](C)(C[C@H](C)c3ncc(F)cn3)N(O)C=O)CC2)c1"
measurement = "< 5.00"


---

The following are reported IC50 results, target or system Disintegrin and metalloproteinase domain-containing protein 17 (Homo sapiens).
Property Measured: IC50 (µM)

[[record]]
mol_smiles = "C[C@@H](C[C@@](C)(CS(=O)(=O)N1CCC(CCc2ccc(C(F)(F)F)cc2C2CC2)CC1)N(O)C=O)c1ncc(F)cn1"
measured_target = "Disintegrin and metalloproteinase domain-containing protein 17 (Homo sapiens)"
property_measured = "IC50"
measurement = 3.2

[[record]]
mol_smiles = "C[C@@H](C[C@@](C)(CS(=O)(=O)N1CCC(CCc2ccc(S(C)(=O)=O)cc2Cl)CC1)N(O)C=O)c1ncc(F)cn1"
measured_target = "Disintegrin and metalloproteinase domain-containing protein 17 (Homo sapiens)"
property_measured = "IC50"
measurement = 5.5

[[record]]
mol_smiles = "Cc1noc(C)c1CCC1CCN(S(=O)(=O)C[C@](C)(C[C@H](C)c2ncc(F)cn2)N(O)C=O)CC1"
measured_target = "Disintegrin and metalloproteinase domain-containing protein 17 (Homo sapiens)"
property_measured = "IC50"
measurement = 0.25

[[record]]
mol_smiles = "Cc1cc(CCC2CCN(S(=O)(=O)C[C@](C)(C[C@H](C)c3ncc(F)cn3)N(O)C=O)CC2)c(C)cn1"
measured_target = "Disintegrin and metalloproteinase domain-containing protein 17 (Homo sapiens)"
property_measured = "IC50"
measurement = 0.23

[[record]]
mol_smiles = "Cc1cnc(C)c(CCC2CCN(S(=O)(=O)C[C@](C)(C[C@H](C)c3ncc(F)cn3)N(O)C=O)CC2)c1"
measured_target = "Disintegrin and metalloproteinase domain-containing protein 17 (Homo sapiens)"
property_measured = "IC50"
measurement = 1.4


All values here come from ChEMBL document CHEMBL1681676.
